Listed here: compounds with reported IC50 for EGFR (Homo sapiens).
Supply the numeric figure in nM, leaving out any unit text.

Value of IC50 reported for the compound O=C1Nc2ccc(Cl)cc2/C1=C\C(=O)c1ccc(O)cc1 [4a] is 100

Further cases:
Value of IC50 reported for the compound O=C1Nc2ccc(Cl)cc2C12CC(c1ccc(Cl)cc1)=NN2 (stereo not drawn) [5d] is 40

Value of IC50 reported for the compound O=C1Nc2ccc(Cl)cc2C12CC(c1ccc(O)cc1)=NN2 (stereo not drawn) [5a] is 90

Value of IC50 reported for the compound Nc1ccc(C(=O)C=C2C(=O)Nc3ccc(Cl)cc32)cc1 [4b] is 50

Value of IC50 reported for the compound Nc1ccc(C2=NNC3(C2)C(=O)Nc2ccc(Cl)cc23)cc1 (stereo not drawn) [5b] is 70

Value of IC50 reported for the compound COc1ccc(C2=NNC3(C2)C(=O)Nc2ccc(Cl)cc23)cc1 (stereo not drawn) [5c] is 80
